# Experiment Notes: NCI Yeast Anticancer Drug Screen. Data for the mec2-1 strain (AID 157)
# Experimental Conditions: S. cerevisiae mec2-1 strain, at 50.0 µM, active compounds read high
Compounds without any hit were thinned out: in the full panel of roughly 79,000, 15% have a hit.
Listed molecules paired with reported growth inhibition

{"Molecule": "Cn1nc2ccccc2cc1=O", "growth inhibition [%]": 2.65}
{"Molecule": "OCC(O)C(O)C(O)[C@H](O)c1nc2ccccc2[nH]1 (some centres not stated)", "growth inhibition [%]": -1.7}
{"Molecule": "Cc1ccc(NC(=S)NCCc2ccccn2)cc1C", "growth inhibition [%]": 13.8}
{"Molecule": "COc1ccc(Cl)cc1NC(=O)c1ccccc1C(=O)O", "growth inhibition [%]": 20.9}
{"Molecule": "O=C(OCC(O)C(O)C(O)COC(=O)c1ccccc1)c1ccccc1 (configuration not stated)", "growth inhibition [%]": -5.05}
{"Molecule": "CCOC(=O)C1=C(C(=O)c2cccc3ccccc23)C(c2cccc([N+](=O)[O-])c2)C(C(=O)c2cccc3ccccc23)=C(C(=O)OCC)N1", "growth inhibition [%]": -7.75}
{"Molecule": "O=[N+]([O-])c1cccc(CO)c1", "growth inhibition [%]": 17.1}
{"Molecule": "OCCCN=C1CCCCC1", "growth inhibition [%]": -10.3}
{"Molecule": "CCC(=O)Oc1cc(C(C)(C)C)c(OC(=O)CC)cc1C(C)(C)C", "growth inhibition [%]": -13.9}
{"Molecule": "Cc1ccc(S(=O)(=O)N2CCC(C(=O)N3CCCC3)(c3cccc(C)c3)CC2)cc1", "growth inhibition [%]": -35.4}
{"Molecule": "Nc1ccc(-c2nc3ccc(N)cc3[nH]2)cc1", "growth inhibition [%]": -17.9}
{"Molecule": "Cc1ccc(OCC(=O)C2CSc3ccc(Cl)cc32)cc1 (configuration not stated)", "growth inhibition [%]": 33}
{"Molecule": "COc1cc2c(cc1OC)C(=O)C1(CO)COC(=O)C1C2 (configuration not stated)", "growth inhibition [%]": -19}
{"Molecule": "Nc1ccc(F)c([N+](=O)[O-])c1", "growth inhibition [%]": 0.65}
{"Molecule": "C/C=C/C1OC(OC)(OC)C1(OC)OC (configuration not stated)", "growth inhibition [%]": 9.85}
{"Molecule": "COc1cc(C(=O)CC(=O)Cc2ccc3ccccc3n2)cc(OC)c1OC", "growth inhibition [%]": 1.3}
{"Molecule": "FC(F)(F)c1cc(-c2ccc(C3Nc4ccccc4-n4cccc43)o2)cc(C(F)(F)F)c1 (configuration not stated)", "growth inhibition [%]": -23.4}

###

# Experiment Notes: NCI Yeast Anticancer Drug Screen. Data for the cln2 rad14 strain (AID 165);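 note: 0% = growth equal to vehicle treated cultures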
# Experimental Conditions: S. cerevisiae cln2 rad14 strain, at 50.0 µM, active compounds read high
The panel holds about 79,000 compounds, 15% with a hit somewhere; the sample as a whole holds those more often.
Property Label: growth inhibition (%)

{"Molecule": "O=[N+]([O-])c1cccc(N=Cc2ccccc2)c1", "Property Label": "growth inhibition", "Numeric Result": 8.15}
{"Molecule": "COc1cc(-c2ccccc2)c(OC)cc1CCl", "Property Label": "growth inhibition", "Numeric Result": 6}
{"Molecule": "Cn1ccc2c(C(=O)c3ccccc3)cccc2c1=O", "Property Label": "growth inhibition", "Numeric Result": 9.7}
{"Molecule": "CC(C)=NOC(C)C(=O)O (stereo not drawn)", "Property Label": "growth inhibition", "Numeric Result": 10.2}
{"Molecule": "CCCNc1nc(C)nc2[nH]c(Cc3ccccc3)c(C)c12", "Property Label": "growth inhibition", "Numeric Result": 0.8}
{"Molecule": "CCCCc1c2c(nc3c1CCCC3=O)CCCC2", "Property Label": "growth inhibition", "Numeric Result": 15.8}
{"Molecule": "COc1cc(C(=O)CCC(=O)O)c(OC)c(CBr)c1CBr", "Property Label": "growth inhibition", "Numeric Result": -23.8}
{"Molecule": "Oc1cccc(C(c2ccccc2)c2ccccc2)c1", "Property Label": "growth inhibition", "Numeric Result": -11.1}
{"Molecule": "O=c1ccn2c(n1)OC1CC2OC1COC(c1ccccc1)(c1ccccc1)c1ccccc1 (stereo not drawn)", "Property Label": "growth inhibition", "Numeric Result": -17.4}
{"Molecule": "NC(=O)C(Cc1ccccc1)c1ccccc1 (stereo not drawn)", "Property Label": "growth inhibition", "Numeric Result": -23}
{"Molecule": "CCOCC/C(C(=O)O)=C(\\CC)C(=O)O", "Property Label": "growth inhibition", "Numeric Result": 8.7}
{"Molecule": "Cc1cc(N=Nc2ccc(C(=O)Nc3ccc4cc(S(=O)(=O)O)ccc4c3)cc2)c(N)c(N=Nc2ccc(N=Nc3ccc(O)c(C(=O)O)c3)cc2)c1N", "Property Label": "growth inhibition", "Numeric Result": -21.9}
{"Molecule": "Cc1ccc(Cl)nn1", "Property Label": "growth inhibition", "Numeric Result": -3.3}
{"Molecule": "COc1ccc(CCl)c(C)c1OC", "Property Label": "growth inhibition", "Numeric Result": 2.75}
{"Molecule": "Cc1c(CCOC=O)c(=O)[nH]c2nncn12", "Property Label": "growth inhibition", "Numeric Result": 16.9}
{"Molecule": "O=C(NC12CC3CC(NC(=O)c4ccccc4)(CC(C1)c1ccccc13)C2)c1ccccc1", "Property Label": "growth inhibition", "Numeric Result": 27.4}
{"Molecule": "CC1=CC(=O)/C(=C/n2c(=S)[nH]c3ccc([N+](=O)[O-])cc32)C(=O)O1", "Property Label": "growth inhibition", "Numeric Result": 6.85}
{"Molecule": "CC(=O)OCC1OC(n2ccc(=O)[nH]c2=O)CC1N=[N+]=[N-] (stereo not drawn)", "Property Label": "growth inhibition", "Numeric Result": -48.3}
{"Molecule": "ClC(Cl)(Cl)C1CCC2CCCC21 (stereo not drawn)", "Property Label": "growth inhibition", "Numeric Result": 6.1}
{"Molecule": "CCCNCCC(=O)Nc1ccccc1C(=O)OCC", "Property Label": "growth inhibition", "Numeric Result": -43.1}
{"Molecule": "COc1ccc2c3c(n(Cc4ccccc4)c(=O)c2c1)-c1cc(OC)c(OC)cc1C3C (stereo not drawn)", "Property Label": "growth inhibition", "Numeric Result": -26.6}
{"Molecule": "Cc1ccc(N=Cc2cc(Br)ccc2O)cc1Cl", "Property Label": "growth inhibition", "Numeric Result": 95}
{"Molecule": "C/C(=N/NC(N)=O)c1ccc([N+](=O)[O-])o1", "Property Label": "growth inhibition", "Numeric Result": 16.1}
{"Molecule": "Cc1cc(Cl)c2c(C)ccc(C)c2n1", "Property Label": "growth inhibition", "Numeric Result": 5.7}
{"Molecule": "Cc1[nH]nc2c1NC(=O)OC2", "Property Label": "growth inhibition", "Numeric Result": -23.4}
{"Molecule": "Nc1cccc(N2N=C(C(=O)O)CC2=O)c1", "Property Label": "growth inhibition", "Numeric Result": -12.7}
{"Molecule": "O=C(O)c1c2c(nc3ccccc13)Cc1ccccc1-2", "Property Label": "growth inhibition", "Numeric Result": -0.2}
{"Molecule": "CC(=O)/C(C)=C\\c1ccc(C(C)C)cc1", "Property Label": "growth inhibition", "Numeric Result": -7.2}
{"Molecule": "COc1ccc2c(c1)CCc1c(C(C)=O)c3ccccc3n1C2", "Property Label": "growth inhibition", "Numeric Result": 15.2}
{"Molecule": "N#CCCNCCC[Si]12OCCN(CCO1)CCO2", "Property Label": "growth inhibition", "Numeric Result": 56.9}
{"Molecule": "CCOC(=O)C1(C(=O)OCC)CCC(C(OC)OC)C(CC(=O)OC)C1 (stereo not drawn)", "Property Label": "growth inhibition", "Numeric Result": -6.5}
{"Molecule": "O=[N+]([O-])c1cccc(CO)c1", "Property Label": "growth inhibition", "Numeric Result": 8.6}
{"Molecule": "O=C(O)C#Cc1ccc(Cl)cc1", "Property Label": "growth inhibition", "Numeric Result": -9.05}
{"Molecule": "CC1/C(=N/Nc2ccc([N+](=O)[O-])cc2)CC2C3(C)CCC2(C(C)C(=O)O)C(=O)C13 (stereo not drawn)", "Property Label": "growth inhibition", "Numeric Result": 45.7}
{"Molecule": "O=NC1CCCCC1Cl (stereo not drawn)", "Property Label": "growth inhibition", "Numeric Result": -4.45}
{"Molecule": "O=S1(=O)C2CCCCCC2(N2CCOCC2)C1C1CCCCC1 (stereo not drawn)", "Property Label": "growth inhibition", "Numeric Result": 25.4}
{"Molecule": "O=C1C=CC(=O)N1n1c(-c2ccccc2)n[nH]c1=O", "Property Label": "growth inhibition", "Numeric Result": -2.8}
{"Molecule": "CC1CCC(=O)N1c1ccc(N)cc1 (stereo not drawn)", "Property Label": "growth inhibition", "Numeric Result": 11.2}
{"Molecule": "O=C(CC(C(=O)c1ccsc1)c1cccs1)c1cccs1 (stereo not drawn)", "Property Label": "growth inhibition", "Numeric Result": 36.4}
{"Molecule": "CN=C1c2ccccc2C(=O)c2c1c(O)n(-c1ccccc1)c2O", "Property Label": "growth inhibition", "Numeric Result": 21.5}
{"Molecule": "O=C(Nc1ccc2c(O)c(N=Nc3ccc(N=Nc4ccc(S(=O)(=O)O)cc4)cc3)c(S(=O)(=O)O)cc2c1)c1ccccc1", "Property Label": "growth inhibition", "Numeric Result": -9.1}
{"Molecule": "CCc1ccc2c(c1)C(C)(CC)CCC2C (stereo not drawn)", "Property Label": "growth inhibition", "Numeric Result": -43}
{"Molecule": "COc1ccc(/C=C2\\CCC(CNc3cc(C)on3)C2=O)cc1 (stereo not drawn)", "Property Label": "growth inhibition", "Numeric Result": 37.1}
{"Molecule": "O=C(OC1COC(n2c(=O)oc3ccc(Cl)cc32)C(OC(=O)c2ccccc2)C1OC(=O)c1ccccc1)c1ccccc1 (stereo not drawn)", "Property Label": "growth inhibition", "Numeric Result": -13.2}
{"Molecule": "COc1ccc(N=Cc2ccc(C#N)cc2)cc1", "Property Label": "growth inhibition", "Numeric Result": 7.95}
{"Molecule": "CCNCC(=O)Nc1ccccc1C(=O)OCC", "Property Label": "growth inhibition", "Numeric Result": -22.5}
{"Molecule": "c1ccc2c(c1)ccc1c3ccccc3ncc21", "Property Label": "growth inhibition", "Numeric Result": 35.5}
{"Molecule": "Cc1nc2c(N)cc(Cl)cc2[nH]1", "Property Label": "growth inhibition", "Numeric Result": 8.25}
